Consider the following compounds and their measured CC50 readings.
# Tested on: keratinocytes HaCaT
# test_description: cytotoxicity on nontumoral healthy cells, MTT assay, HaCaT
# Type: cell-based, human
# assay_setup: 72 h treatment
assay_readout: CC50 (µM)

[
  {
    "compound": "Fc1ccc(C(Cl)Cn2ncc3c(NCc4ccccc4)ncnc32)cc1 (centres unmarked)",
    "tgt": "keratinocytes HaCaT",
    "value_reported": 126
  },
  {
    "compound": "ClC(Cn1ncc2c(NCc3ccccc3)ncnc21)c1ccccc1 (centres unmarked)",
    "tgt": "keratinocytes HaCaT",
    "value_reported": 88.7
  }
]

----------
# test_description: PAMPA, BBB permeability
# Assay type: in vitro ADME
# assay_setup: 5 h, RT, pH 7.4
Consider the following molecules and their measured BBB membrane retention (MR%) readings.
assay_readout: BBB membrane retention (MR%)

[
  {
    "molecule": "Clc1ccc(C(Cl)Cn2ncc3c(NCCc4ccccc4)ncnc32)cc1 (stereo not shown) [Compound 10]",
    "assay_readout": "BBB membrane retention (MR%)",
    "value_reported": "4.8%"
  },
  {
    "molecule": "CSc1nc(NCCc2ccccc2)c2cnn(CC(Cl)c3ccccc3)c2n1 (stereo not shown) [Compound 8]",
    "assay_readout": "BBB membrane retention (MR%)",
    "value_reported": "18.3%"
  },
  {
    "molecule": "Fc1ccc(CNc2ncnc3c2cnn3CC(Cl)c2ccc(Cl)cc2)cc1 (stereo not shown) [Compound 7]",
    "assay_readout": "BBB membrane retention (MR%)",
    "value_reported": "4.4%"
  },
  {
    "molecule": "Fc1ccc(C(Cl)Cn2ncc3c(NCc4ccccc4F)ncnc32)cc1 (stereo not shown) [Compound 6]",
    "assay_readout": "BBB membrane retention (MR%)",
    "value_reported": "4.4%"
  },
  {
    "molecule": "Fc1ccc(C(Cl)Cn2ncc3c(NCc4ccccc4)ncnc32)cc1 (stereo not shown) [Compound 5]",
    "assay_readout": "BBB membrane retention (MR%)",
    "value_reported": "5.6%"
  },
  {
    "molecule": "ClC(Cn1ncc2c(NCc3ccccc3)nc(SCCN3CCOCC3)nc21)c1ccccc1 (stereo not shown) [Compound 9]",
    "assay_readout": "BBB membrane retention (MR%)",
    "value_reported": "6.3%"
  },
  {
    "molecule": "Fc1ccccc1CNc1ncnc2c1cnn2CC(Cl)c1ccccc1 (stereo not shown) [Compound 3]",
    "assay_readout": "BBB membrane retention (MR%)",
    "value_reported": "4.8%"
  },
  {
    "molecule": "ClC(Cn1ncc2c(NC3CC3)ncnc21)c1ccccc1 (stereo not shown) [Compound 2]",
    "assay_readout": "BBB membrane retention (MR%)",
    "value_reported": "55.0%"
  },
  {
    "molecule": "Fc1cccc(CNc2ncnc3c2cnn3CCc2ccccc2)c1 [Compound 11]",
    "assay_readout": "BBB membrane retention (MR%)",
    "value_reported": "5.2%"
  },
  {
    "molecule": "Fc1ccc(CNc2ncnc3c2cnn3CC(Cl)c2ccccc2)cc1 (stereo not shown) [Compound 4]",
    "assay_readout": "BBB membrane retention (MR%)",
    "value_reported": "2.1%"
  }
]
